# TARGET_DESC: HIV-2 protease (Human immunodeficiency virus type 2 subtype A)
# Construct: the coding region of the 99-amino acid protease; made in house; host or cells: Saccharomyces cerevisiae strain AB110, plasmid pHIV2PR115
# Sequence (P04584 514-612 limits assumed): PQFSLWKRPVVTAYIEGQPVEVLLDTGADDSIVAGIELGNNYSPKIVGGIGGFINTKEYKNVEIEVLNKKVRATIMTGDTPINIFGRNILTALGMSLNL
# ASSAY_PROTOCOL: biochemical
# ASSAY_CONTEXT: 1M NaCl
pIC50: −log10 of the molar value.
READOUT_LABEL: pIC50

1) OCCNN=C(CCCN1CCC(O)(c2ccc(Cl)cc2)CC1)c1ccc(F)cc1 :: 4.05
2) OC1(C2(c3ccc(Cl)cc3)SCCCS2)CCN(CCCC2(c3ccc(F)cc3)SCCS2)CC1 :: 4.89
3) OC1(c2ccc(Cl)cc2)CCN(CCCC2(c3ccc(F)cc3)SCCCS2)CC1 :: 4.06
4) O=C(CCCN1CCC(O)(c2ccc(Cl)cc2)CC1)c1ccccc1-c1ccccc1 :: 4.17
5) NN=C(CCCN1CCC(O)(c2ccc(Cl)cc2)CC1)c1ccc(F)cc1 :: 3.70
6) OC1(c2ccccc2)CCN(CCCC2(c3ccccc3)OCCO2)CC1 :: 3.30
7) OC1(c2ccc(Cl)cc2)CCN(CCCC2(c3ccccc3)OCCO2)CC1 :: 3.74
8) OC1(c2ccc(Cl)cc2)CCN(CCCC2(c3ccc(F)cc3)SCCS2)CC1 :: 4.00
9) O=C(CCCN1CCC(O)(c2ccccc2)CC1)c1ccc(F)cc1 :: 3.31
10) O=C(CCCN1CCC(O)(c2ccc(Cl)cc2)CC1)c1cccc(-c2ccccc2)c1 :: 4.72
11) C[C@@H]1SC(CCCN2CCC(O)(c3ccc(Cl)cc3)CC2)(c2ccc(F)cc2)S[C@H]1C (relative stereo) :: 4.30
12) O=C(CCCN1CCC(O)(c2ccccc2)CC1)c1ccccc1 :: 3.54
13) O=C(CCCN1CCC(O)(c2ccc(Cl)cc2)CC1)c1ccccc1 :: 4.40
14) Cc1ccc(C(=O)CCC(c2ccccc2)N2CCC(O)(c3ccc(Cl)cc3)CC2)cc1 (stereo not drawn) :: 4.37
15) C#CCC(CC#C)(CCN1CCC(O)(c2ccc(Cl)cc2)CC1)C(=O)c1ccc(F)cc1 :: 4.22
16) C=CCCCC1(C(=O)c2ccc(N3CCC(O)(c4ccc(Cl)cc4)CC3)cc2)CC1 :: 3.10
17) OC1(c2ccc(Cl)cc2)CCN(CCCN(CCc2ccccc2)Cc2ccccc2)CC1 :: 3.64
18) OC1(c2ccc(Cl)cc2)CCN(CCCC2(c3ccc(F)cc3)SCc3ccc(cc3)CS2)CC1 :: 4.27
19) O=C(CCCN1CCC(c2ccccc2)CC1)c1ccc(F)cc1 :: 3.49
20) OC1(c2ccc(Cl)cc2)CCN(CCCC2(c3cccc(-c4ccccc4)c3)SCCS2)CC1 :: 5.15
21) OC1(c2ccccc2)CCN(CCCC(O)(c2ccccc2)c2ccc3ccccc3n2)CC1 (stereo not drawn) :: 4.10
22) OC1(c2ccc(Cl)cc2)CCN(CCCC2(c3ccc(F)cc3)SCc3ccccc3CS2)CC1 :: 5.00
23) OC1(c2ccc(Cl)cc2)CCN(CCCC2(c3ccc(F)cc3)SCc3cccc(c3)CS2)CC1 :: 4.12
24) OC(CCCC1(O)CCN(Cc2ccccc2)CC1)c1ccccc1 (stereo not drawn) :: 3.30
25) OC1(c2ccc(Cl)cc2)CCN(CCCC(O)(Cc2ccccc2)c2ccc(F)cc2)CC1 (stereo not drawn) :: 4.12
26) O=C(CCC[N+]1(CCc2ccccc2)CCC(O)(c2ccc(Cl)cc2)CC1)c1ccc(F)cc1 (stereo not drawn) :: 3.60
27) C=C(CCCN1CCC(O)(c2ccc(Cl)cc2)CC1)c1ccc(F)cc1 :: 4.47
28) O=C(Cc1ccccc1)N(CCCN1CCC(O)(c2ccc(Cl)cc2)CC1)Cc1ccccc1 :: 4.32
29) CC[C@H]1CSC(CCCN2CCC(O)(c3ccc(Cl)cc3)CC2)(c2ccc(F)cc2)O1 (stereo partly drawn) :: 4.24
30) OC1(c2ccc(Cl)cc2)CCN(CCCC(O)(c2ccccc2)c2ccccc2-c2ccccc2)CC1 (stereo not drawn) :: 4.96
31) Cc1ccc(C2(CCC(c3ccccc3)N3CCC(O)(c4ccc(Cl)cc4)CC3)SCCS2)cc1 (stereo not drawn) :: 5.00
32) O=C(c1ccc(N2CCC(O)(c3ccc(Cl)cc3)CC2)cc1)C1(CC#CCO)CC1 :: 4.11
33) OC1(c2ccc(Cl)cc2)CCN(CCN(Cc2ccccc2)Cc2ccccc2)CC1 :: 4.47
34) C=C(CCC[N+]1([O-])CCC(O)(c2ccc(Cl)cc2)CC1)c1ccc(F)cc1 (stereo not drawn) :: 4.17
35) O=C(CCC[N+]1([O-])CCC(O)(c2ccc(Cl)cc2)CC1)c1ccc(F)cc1 (stereo not drawn) :: 3.87
